molecular target: CHEK1 (human); assay: radiometric filter-binding kinase assay, Kinase HotSpot; details: compound 0.5 µM; ATP 10 µM
// values below are reported residual activity
The reply should be a number in %, with the unit left off.

Consider the following illustrative entries.
CCN1/C(=C/C(C)=O)Sc2ccc(OC)cc21
87.9
CC(C)[C@H](CO)Nc1nc(Nc2cccc(Cl)c2)c2ncn(C(C)C)c2n1
97.9
CC(C)(C)c1nc2c3ccc(F)cc3c3c(=O)[nH]ccc3c2[nH]1
22.9
O=C(NC(NC(=S)Nc1ccc(F)c([N+](=O)[O-])c1)C(Cl)(Cl)Cl)C(c1ccccc1)c1ccccc1 (stereo not given)
100
NC(=O)c1ccc(N(C(N)=O)c2c(F)cccc2F)nc1-c1ccc(F)cc1F
89.2

Data request: Let me know recorded residual activity for O=C1Nc2ccccc2/C1=C\c1c(Cl)[nH]c2ccccc12 , thanks.
Data returned: 93.7

Data request: Let me know recorded residual activity for O=C1Nc2cc(Br)ccc2/C1=C1/Nc2ccccc2/C1=N\O , thanks.
Data returned: 57.1

Data request: Let me know recorded residual activity for Clc1ccc(Nc2nnc(Cc3ccncc3)c3ccccc23)cc1 , thanks.
Data returned: 96.5

Data request: Let me know recorded residual activity for O=C(Nc1ccc(Cl)cc1)c1ccccc1NCc1ccncc1 , thanks.
Data returned: 96.4

====

target: UniProt:P41743; experiment: radiometric filter-binding kinase assay, Kinase HotSpot; conditions: compound 0.5 µM; ATP 10 µM
Sequence (P41743 whole entry, looked up): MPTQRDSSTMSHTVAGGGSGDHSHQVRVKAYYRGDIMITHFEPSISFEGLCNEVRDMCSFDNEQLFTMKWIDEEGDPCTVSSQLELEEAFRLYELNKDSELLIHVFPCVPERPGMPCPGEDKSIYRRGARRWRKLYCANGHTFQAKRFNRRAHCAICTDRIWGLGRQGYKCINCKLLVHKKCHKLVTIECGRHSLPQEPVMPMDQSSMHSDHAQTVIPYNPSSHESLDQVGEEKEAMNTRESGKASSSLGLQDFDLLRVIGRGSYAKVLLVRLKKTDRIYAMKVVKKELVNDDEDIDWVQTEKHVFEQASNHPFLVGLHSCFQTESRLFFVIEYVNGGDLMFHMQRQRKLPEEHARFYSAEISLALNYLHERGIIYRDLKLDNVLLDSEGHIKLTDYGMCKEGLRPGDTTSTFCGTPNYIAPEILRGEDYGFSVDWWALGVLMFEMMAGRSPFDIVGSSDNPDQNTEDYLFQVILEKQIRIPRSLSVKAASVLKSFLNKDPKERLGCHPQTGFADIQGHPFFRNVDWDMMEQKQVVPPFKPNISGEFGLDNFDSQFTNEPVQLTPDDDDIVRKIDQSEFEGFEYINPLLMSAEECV
PARAMETER: residual activity (%)
The reply should be a number in %, with the unit left off.

Consider the following illustrative entries.
O=C(NC(NC(=S)Nc1ccc(F)c([N+](=O)[O-])c1)C(Cl)(Cl)Cl)C(c1ccccc1)c1ccccc1 (centres undefined)
94
O=C1Cc2c([nH]c3ccc([N+](=O)[O-])cc23)-c2ccccc2N1
83.3
Nc1n[nH]c2nnc(-c3c(-c4ccccc4)nn4ccccc34)cc12
98.3

Data request: Let me know recorded residual activity for COc1cc2nccc(Oc3ccc(NC(=S)NC(=O)c4ccccc4C)cc3)c2cc1OC , thanks.
Data returned: 99.9

====

// values below are reported residual activity
biological target: PTK2B (human) (UniProt Q14289); assay: radiometric filter-binding kinase assay, Kinase HotSpot; conditions: compound 0.5 µM; ATP 10 µM
Sequence (Q14289 whole entry, looked up): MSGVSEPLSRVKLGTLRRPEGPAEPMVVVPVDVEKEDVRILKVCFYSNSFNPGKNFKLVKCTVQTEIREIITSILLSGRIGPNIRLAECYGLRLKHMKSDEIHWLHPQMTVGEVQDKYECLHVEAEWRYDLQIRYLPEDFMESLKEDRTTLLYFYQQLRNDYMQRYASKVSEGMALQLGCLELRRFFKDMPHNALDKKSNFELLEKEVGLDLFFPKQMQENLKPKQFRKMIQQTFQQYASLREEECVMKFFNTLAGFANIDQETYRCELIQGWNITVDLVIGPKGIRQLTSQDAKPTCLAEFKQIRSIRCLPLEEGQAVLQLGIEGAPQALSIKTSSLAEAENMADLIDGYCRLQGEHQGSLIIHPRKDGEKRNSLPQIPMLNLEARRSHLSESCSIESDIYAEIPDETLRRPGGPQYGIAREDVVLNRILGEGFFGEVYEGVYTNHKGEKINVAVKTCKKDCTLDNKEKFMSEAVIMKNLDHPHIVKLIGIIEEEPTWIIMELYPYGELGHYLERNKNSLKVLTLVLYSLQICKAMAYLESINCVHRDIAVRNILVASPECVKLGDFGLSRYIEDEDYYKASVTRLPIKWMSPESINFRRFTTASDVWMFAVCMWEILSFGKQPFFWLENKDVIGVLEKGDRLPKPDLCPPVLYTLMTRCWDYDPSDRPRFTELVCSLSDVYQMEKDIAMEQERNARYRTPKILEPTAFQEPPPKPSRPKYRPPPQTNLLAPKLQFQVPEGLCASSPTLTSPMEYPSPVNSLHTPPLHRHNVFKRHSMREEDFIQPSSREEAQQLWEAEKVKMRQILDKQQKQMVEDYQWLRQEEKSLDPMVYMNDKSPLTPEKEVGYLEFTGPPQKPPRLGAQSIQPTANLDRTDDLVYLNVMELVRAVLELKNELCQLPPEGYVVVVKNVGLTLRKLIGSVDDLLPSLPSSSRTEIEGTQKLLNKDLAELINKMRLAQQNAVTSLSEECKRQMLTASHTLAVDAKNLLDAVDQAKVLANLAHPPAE
The reply should be a number in %, with the unit left off.

Consider the following illustrative entries.
CC(C)[C@H](CO)Nc1nc(Nc2cccc(Cl)c2)c2ncn(C(C)C)c2n1
66.5
CC(C)n1cnc2c(Nc3cccc(Cl)c3)nc(NCCO)nc21
85
Oc1ccc(-c2nc(-c3ccc(F)cc3)c(-c3ccncc3)[nH]2)cc1
96.2

Data request: Report measured residual activity on PTK2B (human) (UniProt Q14289); entry: COc1cc2nccc(Oc3ccc(NC(=S)NC(=O)c4ccccc4C)cc3)c2cc1OC
Data returned: 93.4

Data request: Report measured residual activity on PTK2B (human) (UniProt Q14289); entry: Nc1nc(Nc2ccc(S(N)(=O)=O)cc2)nn1C(=S)Nc1c(F)cccc1F
Data returned: 33.6

Data request: Report measured residual activity on PTK2B (human) (UniProt Q14289); entry: O=C(Nc1ccc(Cl)cc1)c1ccccc1NCc1ccncc1
Data returned: 89.3

Data request: Report measured residual activity on PTK2B (human) (UniProt Q14289); entry: Clc1ccc(Nc2nnc(Cc3ccncc3)c3ccccc23)cc1
Data returned: 102

Data request: Report measured residual activity on PTK2B (human) (UniProt Q14289); entry: CCN1/C(=C/C(C)=O)Sc2ccc(OC)cc21
Data returned: 97.8

Data request: Report measured residual activity on PTK2B (human) (UniProt Q14289); entry: Nc1n[nH]c2nnc(-c3c(-c4ccccc4)nn4ccccc34)cc12
Data returned: 95.4

Data request: Report measured residual activity on PTK2B (human) (UniProt Q14289); entry: O=C(NC(NC(=S)Nc1ccc(F)c([N+](=O)[O-])c1)C(Cl)(Cl)Cl)C(c1ccccc1)c1ccccc1 (stereo not given)
Data returned: 102
